system: Bacillus subtilis; experiment: Antibacterial activity against Bacillus subtilis after 24 hrs by two-fold serial dilution assay; type: functional; conditions: Bacillus subtilis, 24 h; read-out: MIC
Each record here notes measured log10 of MIC.
measuredParameter: log10 of MIC (log10 of the value in µM)

molecule="CCn1c(-c2cc(OC)c(O)c3c2CC2c4cc5c(cc4CCN2C3)OCO5)nc2ccccc21 (stereo not given)" measuredon="Bacillus subtilis" val=1.53
molecule="COc1cc(-c2nc3ccccc3n2CCCCCCn2c3ccccc3c3ccccc32)c2c(c1O)CN1CCc3cc4c(cc3C1C2)OCO4 (stereo not given)" measuredon="Bacillus subtilis" val=2.87
molecule=COc1ccc2cc3[n+](cc2c1OC)CCc1cc2c(cc1-3)OCO2 measuredon="Bacillus subtilis" val=3.06
molecule="COc1ccc2c(c1O)CN1CCc3cc4c(cc3C1C2)OCO4 (stereo not given)" measuredon="Bacillus subtilis" val=3.20
molecule="COc1cc(-c2nc3ccccc3n2Cc2ccccc2F)c2c(c1O)CN1CCc3cc4c(cc3C1C2)OCO4 (stereo not given)" measuredon="Bacillus subtilis" val=1.69
molecule="CCCCCCCCn1c(-c2cc(OC)c(O)c3c2CC2c4cc5c(cc4CCN2C3)OCO5)nc2ccccc21 (stereo not given)" measuredon="Bacillus subtilis" val=1.76
molecule="COc1cc(-c2nc3cc(F)ccc3[nH]2)c2c(c1O)CN1CCc3cc4c(cc3C1C2)OCO4 (stereo not given)" measuredon="Bacillus subtilis" val=0.64
molecule="COc1cc(-c2nc3ccccc3n2Cc2ccccc2Cl)c2c(c1O)CN1CCc3cc4c(cc3C1C2)OCO4 (stereo not given)" measuredon="Bacillus subtilis" val=2.27
molecule=CCn1cc(C(=O)O)c(=O)c2cc(F)c(N3CCNCC3)cc21 measuredon="Bacillus subtilis" val=0.49
molecule="COc1cc(-c2nc3cc(Cl)ccc3[nH]2)c2c(c1O)CN1CCc3cc4c(cc3C1C2)OCO4 (stereo not given)" measuredon="Bacillus subtilis" val=2.86
molecule="CCCn1c(-c2cc(OC)c(O)c3c2CC2c4cc5c(cc4CCN2C3)OCO5)nc2ccccc21 (stereo not given)" measuredon="Bacillus subtilis" val=2.04
molecule="COc1cc(-c2nc3ccccc3n2Cc2ccc(Cl)cc2Cl)c2c(c1O)CN1CCc3cc4c(cc3C1C2)OCO4 (stereo not given)" measuredon="Bacillus subtilis" val=1.05
molecule="COc1cc(C=O)c2c(c1O)CN1CCc3cc4c(cc3C1C2)OCO4 (stereo not given)" measuredon="Bacillus subtilis" val=2.68
molecule="COc1cc(-c2nc3ccccc3n2Cc2cccc(Cl)c2)c2c(c1O)CN1CCc3cc4c(cc3C1C2)OCO4 (stereo not given)" measuredon="Bacillus subtilis" val=1.67
molecule="COc1ccc(Cn2c(-c3cc(OC)c(O)c4c3CC3c5cc6c(cc5CCN3C4)OCO6)nc3ccccc32)cc1 (stereo not given)" measuredon="Bacillus subtilis" val=1.28

###

tested on: Escherichia coli; assay: Antibacterial activity against Escherichia coli DH52 after 24 hrs by two-fold serial dilution assay; assay type: functional
measuredParameter: MIC (µM)

molecule="COc1cc(-c2nc3ccccc3n2Cc2ccccc2F)c2c(c1O)CN1CCc3cc4c(cc3C1C2)OCO4.Cl (centres undefined)" displayunit=µM val=20.9
molecule="COc1cc(-c2nc3ccccc3n2CCCCCCn2c3ccccc3c3ccccc32)c2c(c1O)CN1CCc3cc4c(cc3C1C2)OCO4.Cl (centres undefined)" displayunit=µM val=88
molecule="COc1cc(-c2nc3ccccc3n2Cc2ccc(F)cc2)c2c(c1O)CN1CCc3cc4c(cc3C1C2)OCO4.Cl (centres undefined)" displayunit=µM val=182
molecule="COc1cc(-c2nc3ccccc3n2Cc2ccc(Cl)cc2)c2c(c1O)CN1CCc3cc4c(cc3C1C2)OCO4.Cl (centres undefined)" displayunit=µM val=669.8
